Provide the recorded melting point for the entries that follow.

Batch request: melting point for each of the following compounds.
1. CCC1(CC)CN(c2ccnc3c2c(/C=C2\Oc4ccc(NC(=O)Nc5cccnc5)cc4C2=O)cn3C)CCO1 [Compound 295]
2. COCCN(CCOC)C(=O)C1CCN(c2ccnc3c2c(/C=C2\Oc4ccc(NC(=O)Nc5cccnc5)cc4C2=O)cn3C)CC1 [Compound 251]
3. CC1CC(C)CN(c2ccnc3c2c(/C=C2\Oc4cccc(O)c4C2=O)cn3C)C1 (stereo not shown) [Compound 100]
4. Cn1cc(/C=C2\Oc3ccc(NC(=O)OCCO)cc3C2=O)c2c(-c3ccccc3)ccnc21 [Compound 60]
5. Cn1cc(/C=C2\Oc3ccc(NC(=O)Nc4cccnc4)cc3C2=O)c2c(N3CCC(C(=O)NCc4ccncc4)CC3)ccnc21 [Compound 271]
6. CN(Cc1ccccn1)C(=O)C1CCN(c2ccnc3c2c(/C=C2\Oc4ccc(NC(=O)Nc5cccnc5)cc4C2=O)cn3C)CC1 [Compound 257]
7. Cn1cc(/C=C2\Oc3ccc(NC(=O)Nc4cccnc4)cc3C2=O)c2c(N3CCC(C(=O)N4CC5CC4CN5)CC3)ccnc21 (stereo not shown) [Compound 264]
8. CN(C)Cc1cccc(-c2ccnc3c2c(/C=C2\Oc4cccc(O)c4C2=O)cn3C)c1 [Compound 122]

[A]
1: 225 to 228 °C; 2: 206 to 210 °C; 3: 235 to 240 °C; 4: 233 to 235 °C; 5: 208 to 216 °C; 6: 187 to 189 °C; 7: 257 to 262 °C (dec.); 8: 308 to 315 °C

Please go through the list and note melting point for each compound.
1. CN(C)CCCN1CCN(c2ccnc3c2c(/C=C2\Oc4cccc(O)c4C2=O)cn3C)CC1 [Compound 118]
2. CN(C)C(=O)c1ccccc1-c1ccnc2c1c(/C=C1\Oc3cccc(O)c3C1=O)cn2C [Compound 141]
3. Cn1cc(/C=C2\Oc3cc(O)cc(O)c3C2=O)c2c(N3CCCCC3)ccnc21 [Compound 40]
4. Cn1cc(/C=C2\Oc3ccc(NC(=O)Nc4cccnc4)cc3C2=O)c2c(N3CCC(C(=O)Nc4ccncc4)CC3)ccnc21 [Compound 263]
5. Cn1cc(/C=C2\Oc3cccc(N)c3C2=O)c2c(-c3ccccc3)ccnc21 [Compound 108]

[A]
1: 263 to 268 °C; 2: 293 to 295 °C; 3: 322 to 324 °C; 4: 230 to 235 °C (dec.); 5: 262 to 268 °C
